test: NCI Yeast Anticancer Drug Screen. Data for the mlh1 rad18 strain (AID 175); conditions: S. cerevisiae mlh1 rad18 strain growth inhibition; at 5.0 µM (retest, dose inferred, filed as 0.5)
Compounds without any hit were thinned out: in the full panel of roughly 79,000, 15% have a hit. Activity calls are given as the source filed them. Rule as the data show it: active = growth inhibition above about 70%; inactive = the rest.
Entry note: the call must match one of active, inactive

Asked: For COc1ccc(P2(=S)Oc3ccc(C(c4ccccc4)(c4ccccc4)c4ccccc4)cc3O2)cc1 (configuration not stated) , which call appears in the assay record?
Given back: inactive

Asked: For CC1(Br)Cc2ccccc2C1=O (configuration not stated) , which call appears in the assay record?
Given back: inactive

Asked: For `O=[N+]([O-])c1cc(Cl)c(Cl)cc1[N+](=O)[O-]` , which call appears in the assay record?
Given back: inactive

Asked: For COC(=O)C1ON(c2ccccc2)C2c3ccccc3-c3ccccc3C12 (configuration not stated) , which call appears in the assay record?
Given back: inactive

Asked: For C[C@]12CC[C@H](OC3OC(CO)C(O)C(O)C3O)C[C@H]1CC[C@@H]1[C@@H]2CC[C@]2(C)[C@@H](C3=CCOC3=O)CC[C@]12O (some centres not stated) , which call appears in the assay record?
Given back: inactive

Asked: For `O=C1C=C(N2CC2)C(=O)C(N2CC2)=C1N1CC1` , which call appears in the assay record?
Given back: active

Asked: For `IC(I)=C(I)I` , which call appears in the assay record?
Given back: active

Asked: For `COc1ccc(O)c(/C=C/[N+](=O)[O-])c1` , which call appears in the assay record?
Given back: inactive

Asked: For `S=C1NCCN1` , which call appears in the assay record?
Given back: inactive

Asked: For `CC(=O)CC(=O)Nc1c(C)[c]([Hg][O]C(C)=O)c(C)[c]([Hg][O]C(C)=O)[c]1[Hg][O]C(C)=O` , which call appears in the assay record?
Given back: active

Asked: For `[N-]=[N+]=Nc1c([N+](=O)[O-])c(=O)n2c3c(cccc13)CCC2` , which call appears in the assay record?
Given back: inactive

Asked: For `O=[N+]([O-])/C=C/c1ccc([N+](=O)[O-])cc1` , which call appears in the assay record?
Given back: inactive

Asked: For `CC[CH2][Pb]([CH2]CC)([CH2]CC)[O]C(C)=O` , which call appears in the assay record?
Given back: inactive

Asked: For `[Cl][Sn]([CH2]c1ccccc1)([CH2]c1ccccc1)[CH2]c1ccccc1` , which call appears in the assay record?
Given back: active

Asked: For CCOC(=O)[C]1([Pb]([CH3])([CH3])[CH3])N=NC(C(=O)OC)=C1C(=O)OC (configuration not stated) , which call appears in the assay record?
Given back: inactive

Asked: For `CCCC1CC[N-]CC1.CCCC1CC[N-]CC1.N#C[S-].N#C[S-].[Cd]` , which call appears in the assay record?
Given back: inactive

Asked: For `O=C(CCl)OCc1ccccc1` , which call appears in the assay record?
Given back: inactive

Asked: For `CN(C)C(=S)Nc1nnc(NC23CC4CC(CC(C4)C2)C3)s1` , which call appears in the assay record?
Given back: inactive

Asked: For `O=[N+]([O-])c1cc[n+]([O-])c2ccccc12` , which call appears in the assay record?
Given back: active

Asked: For `CN1CCN(c2ccc3nc(-c4ccc5nc(-c6ccc(N(C)CCCl)cc6)[nH]c5c4)[nH]c3c2)CC1` , which call appears in the assay record?
Given back: inactive

Asked: For CC(=O)OC1CC[C@@]2(C)C(=CC[C@@H]3[C@@H]2CC[C@]2(C)C(OC(C)=O)[C@H](n4ccnc4)C[C@@H]32)C1 (some centres not stated) , which call appears in the assay record?
Given back: inactive

Asked: For `CN(C)C(=S)[S][Hg][c]1ccccc1` , which call appears in the assay record?
Given back: inactive

Asked: For O=C1c2ccccc2CCC1Br (configuration not stated) , which call appears in the assay record?
Given back: inactive

Asked: For Nc1cccc([As]=S)c1 (configuration not stated) , which call appears in the assay record?
Given back: inactive

Asked: For `CC(=O)O[C@@H]1[C@@H](O)[C@H]2O[C@@H]3C=C(C)C(=O)[C@@H](O)[C@]3(CO)[C@]1(C)[C@]21CO1` , which call appears in the assay record?
Given back: inactive

Asked: For C[N+](C)(C)CC1CCCc2ccccc2C1=O (configuration not stated) , which call appears in the assay record?
Given back: inactive

Asked: For `C[C@@H]1C[C@@H]([C@H](O)CC2CC(=O)NC(=O)C2)C(=O)[C@@H](C)C1` , which call appears in the assay record?
Given back: active

Asked: For O=C1CCCC1Cl (configuration not stated) , which call appears in the assay record?
Given back: inactive

Asked: For `O=C1C=C(Cl)C(=O)C(Cl)=C1` , which call appears in the assay record?
Given back: inactive

Asked: For `C[CH2][Hg]` , which call appears in the assay record?
Given back: active

Asked: For `O=P(c1cccc(C(F)(F)F)c1)(c1cccc(C(F)(F)F)c1)c1cccc(C(F)(F)F)c1.O=P(c1cccc(C(F)(F)F)c1)(c1cccc(C(F)(F)F)c1)c1cccc(C(F)(F)F)c1.[Cl][Sn]([Cl])([Cl])[Cl]` , which call appears in the assay record?
Given back: inactive

Asked: For `[Cl][Pt][Cl].c1ccc([AsH](CC[AsH](c2ccccc2)c2ccccc2)c2ccccc2)cc1` , which call appears in the assay record?
Given back: active
